experiment: Partition coefficient (logP); format: physicochemical; settings: octanol/water
Assay Readout: logP

Smiles Repr	Assay Result
CN(C)c1ccc(-c2cc(-c3ccccc3)[se+]c(-c3ccc(N(C)C)cc3)c2)cc1	2.4
CN(C)c1ccc(-c2cc(-c3ccccc3)[s+]c(-c3ccc(N(C)C)cc3)c2)cc1	2.5
CN(C)c1ccc(-c2cc(-c3ccccc3)[se+]c(-c3ccc(N)cc3)c2)cc1	0.8
CN(C)c1ccc(-c2cc(-c3ccccc3)[te+]c(-c3ccc(N)cc3)c2)cc1	0.5
CN(C)c1ccc(-c2cc(-c3ccccc3)[s+]c(-c3ccc(N)cc3)c2)cc1	0
CN(C)c1ccc(-c2cc(-c3ccccc3)[te+]c(-c3ccc(N(C)C)cc3)c2)cc1	2.5
